- Tested on: MS2 coat protein
- TEST_METHOD_NOTES: apparent KD of MS2 coat protein; higher = weaker reporter binding
- TEST_PARAMETERS: Eterna round: R107; input ligand: tryptophan 2.4 mM
Measured apparent KD of MS2 coat protein of individual entries
Quick reminder: number only, in nM, skip the unit.

Known apparent KD of MS2 coat protein results, listed for orientation:
ENTRY_SEQUENCE: GGGCGAGUGGACCGGCGUGCUCCGCUCCGUCGAGGACCGGUACGGCCGCCACUCGACAUGAGGAUCACCCAUGUGCGAGCUCGCG [#1 Exclusion - Tryptophan A Attempt #14 (HarryS)]
UNIT_STRING: nM
apparent KD of MS2 coat protein: 86

ENTRY_SEQUENCE: GACAUGAGGAUCACCCAUGUACCGCGAGAAGGAGCGCGGAUAAACGCAGGUAGGUCGCUCGUGGGCUUUUAUUCAAUCGAAAGCU [Zaesar]
UNIT_STRING: nM
apparent KD of MS2 coat protein: 48

Attention now turns to another entry.
Reported apparent KD of MS2 coat protein (MS2 coat protein) for entry UGGUGUAGGGUAAAUAGGAUUAGUACAGAAGGAGCGCGAAUAAACGCAGGUAGGUCGCUGGAAUAAACAUGAGGAUCACCCAUGU [Same State Arginine A GF 27] is 20.7
